- targetDesc: T1, In house human CD8A-Fc (human, UniProt P01732 22-182, limits assumed)
- T1 construct: Captured on goat anti-human Fc on a ProteOn GLC chip; also called hCD8A-Fc; recombinant human CD8 alpha; not shown: linker with flag (and polyhistidine) tag and Fc of human IgG1
- T1 sequence (P01732 22-182 limits assumed): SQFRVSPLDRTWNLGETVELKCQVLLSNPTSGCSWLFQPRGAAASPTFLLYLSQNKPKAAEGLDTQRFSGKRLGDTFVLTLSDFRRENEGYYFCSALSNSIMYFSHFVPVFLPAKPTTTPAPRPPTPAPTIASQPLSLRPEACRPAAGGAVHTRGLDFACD
- testName: SPR (ProteOn), captured hCD8A-Fc
metricName: koff (s⁻¹)

### Prompt May I ask what koff has been recorded for P282FR9P1361_H4 (designed binder, FN3 domain) LPAPKNLVVSRVTEDSARLSWTAPDAAFDSFGIWYAEYGYSGEAIVLTVPGSERSYDLTGLKPGTEYDVAIYGVKGGSPSYPLSAIFTT ?
### Response 0.000317

### Prompt May I ask what koff has been recorded for P283AR9P1362_B10 (designed binder, FN3 domain) LPAPKNLVVSRVTEDSARLSWKRRWDSFDSFLIQYQESEKVGEAIVLTVPGSERSYDLTGLKPGTEYTVSIYGVDVEWFNGLPHHSNPLSAIFTT ?
### Response 0.000139

### Prompt May I ask what koff has been recorded for P282DR9P1359_E2 (designed binder, FN3 domain) LPAPKNLVVSRVTEDSARLSWTAPDAAFDSFNIFYPEIVTWGEAIVLTVPGSERSYDLTGLKPGTEYWVNIVGVKGGDNSWPLSAIFTT ?
### Response 0.00206

### Prompt May I ask what koff has been recorded for P283AR9P1362_A4 (designed binder, FN3 domain) LPAPKNLVVSRVTEDSARLSWIGHDSGFDSFLIQYQESEKVGEAIVLTVPGSERSYDLTGLKPGTEYTVSIYGVDVKYDIDSRPISSNPLSAIFTT ?
### Response 0.000302

1: P282BR9P1357_C10 (designed binder, FN3 domain) LPAPKNLVVSRVTEDSARLSWWSNDNRPIFDSFLIQYQESEKVGEAIVLTVPGSERSYDLTGLKPGTEYTVSIYGVDVKWEGNRPVASNPLSAIFTT
2: P282ER9P1360_D11 (designed binder, FN3 domain) LPAPKNLVVSRVTEDSARLSWTAPDAAFDSFGILYYEPVDSGEAITLPVPGSERSYDLTGLKPGTEYFVIIVGVKGGYPSIPLGAAFTT
### Prompt Compare 1 and 2 and name the one whose reported koff is smaller. Please respond with the label that marks your chosen entry.
### Response 2
